Provenance of the data: the supplement of paper PMC5998384

Listing of recorded thermal stability score by entry.
Tested on: HeLa Kyoto
test details: thermal stability score vs G1/S (z-score of summed log2 fold changes over temperatures); higher = more thermally stable than in G1/S
measurement context: cell cycle stage: early G1 (4.5 h after nocodazole release)

[
  {
    "polymer sequence": "MVSPATRKSLPKVKAMDFITSTAILPLLFGCLGVFGLFRLLQWVRGKAYLRNAVVVITGATSGLGKECAKVFYAAGAKLVLCGRNGGALEELIRELTASHATKVQTHKPYLVTFDLTDSGAIVAAAAEILQCFGYVDILVNNAGISYRGTIMDTTVDVDKRVMETNYFGPVALTKALLPSMIKRRQGHIVAISSIQGKMSIPFRSAYAASKHATQAFFDCLRAEMEQYEIEVTVISPGYIHTNLSVNAITADGSRYGVMDTTTAQGRSPVEVAQDVLAAVGKKKKDVILADLLPSLAVYLRTLAPGLFFSLMASRARKERKSKNS [DHRS7B]",
    "tested target": "HeLa Kyoto",
    "thermal stability score": -0.951
  },
  {
    "polymer sequence": "MAWRGWAQRGWGCGQAWGASVGGRSCEELTAVLTPPQLLGRRFNFFIQQKCGFRKAPRKVEPRRSDPGTSGEAYKRSALIPPVEETVFYPSPYPIRSLIKPLFFTVGFTGCAFGSAAIWQYESLKSRVQSYFDGIKADWLDSIRPQKEGDFRKEINKWWNNLSDGQRTVTGIIAANVLVFCLWRVPSLQRTMIRYFTSNPASKVLCSPMLLSTFSHFSLFHMAANMYVLWSFSSSIVNILGQEQFMAVYLSAGVISNFVSYVGKVATGRYGPSLGASGAIMTVLAAVCTKIPEGRLAIIFLPMFTFTAGNALKAIIAMDTAGMILGWKFFDHAAHLGGALFGIWYVTYGHELIWKNREPLVKIWHEIRTNGPKKGGGSK [PARL]",
    "tested target": "HeLa Kyoto",
    "thermal stability score": -0.187
  },
  {
    "polymer sequence": "MAAVSVYAPPVGGFSFDNCRRNAVLEADFAKRGYKLPKVRKTGTTIAGVVYKDGIVLGADTRATEGMVVADKNCSKIHFISPNIYCCGAGTAADTDMTTQLISSNLELHSLSTGRLPRVVTANRMLKQMLFRYQGYIGAALVLGGVDVTGPHLYSIYPHGSTDKLPYVTMGSGSLAAMAVFEDKFRPDMEEEEAKNLVSEAIAAGIFNDLGSGSNIDLCVISKNKLDFLRPYTVPNKKGTRLGRYRCEKGTTAVLTEKITPLEIEVLEETVQTMDTS [PSMB7]",
    "tested target": "HeLa Kyoto",
    "thermal stability score": -1.21
  },
  {
    "polymer sequence": "MGEIKVSPDYNWFRGTVPLKKIIVDDDDSKIWSLYDAGPRSIRCPLIFLPPVSGTADVFFRQILALTGWGYRVIALQYPVYWDHLEFCDGFRKLLDHLQLDKVHLFGASLGGFLAQKFAEYTHKSPRVHSLILCNSFSDTSIFNQTWTANSFWLMPAFMLKKIVLGNFSSGPVDPMMADAIDFMVDRLESLGQSELASRLTLNCQNSYVEPHKIRDIPVTIMDVFDQSALSTEAKEEMYKLYPNARRAHLKTGGNFPYLCRSAEVNLYVQIHLLQFHGTKYAAIDPSMVSAEELEVQKGSLGISQEEQ [SPG21]",
    "tested target": "HeLa Kyoto",
    "thermal stability score": 0.11
  },
  {
    "polymer sequence": "MAALRVLLSCVRGPLRPPVRCPAWRPFASGANFEYIIAEKRGKNNTVGLIQLNRPKALNALCDGLIDELNQALKTFEEDPAVGAIVLTGGDKAFAAGADIKEMQNLSFQDCYSSKFLKHWDHLTQVKKPVIAAVNGYAFGGGCELAMMCDIIYAGEKAQFAQPEILIGTIPGAGGTQRLTRAVGKSLAMEMVLTGDRISAQDAKQAGLVSKICPVETLVEEAIQCAEKIASNSKIVVAMAKESVNAAFEMTLTEGSKLEKKLFYSTFATDDRKEGMTAFVEKRKANFKDQ [ECHS1]",
    "tested target": "HeLa Kyoto",
    "thermal stability score": -1.11
  }
]

---

Tested on: HeLa Kyoto
test details: solubility in G1/S (NP-40 vs SDS abundance) (log2 ratio); higher = more soluble
measurement context: cell cycle stage: G1/S
# solubility in G1/S (log2) annotations

[
  {
    "polymer sequence": "MAGAGRGAAVSRVQAGPGSPRRARGRQQVQPLGKQRPAPWPGLRSKEKKKVNCKPKNQDEQEIPFRLREIMRSRQEMKNPISNKKRKKAAQVTFRKTLEKEAKGEEPDIAVPKFKQRKGESDGAYIHRMQQEAQHVLFLSKNQAIRQPEVQAAPKEKSEQKKAKKAFQKRRLDKVRRKKEEKAADRLEQELLRDTVKFGEVVLQPPELTARPQRSVSKDQPGRRSQMLRMLLSPGGVSQPLTASLARQRIVEEERERAVQAYRALKQRQQQLHGERPHLTSRKKPEPQL [CCDC137]",
    "solubility in G1/S (log2)": -1.04
  },
  {
    "polymer sequence": "MSYRRELEKYRDLDEDEILGALTEEELRTLENELDELDPDNALLPAGLRQKDQTTKAPTGPFKREELLDHLEKQAKEFKDREDLVPYTGEKRGKVWVPKQKPLDPVLESVTLEPELEEALANASDAELCDIAAILGMHTLMSNQQYYQALSSSSIMNKEGLNSVIKPTQYKPVPDEEPNSTDVEETLERIKNNDPKLEEVNLNNIRNIPIPTLKAYAEALKENSYVKKFSIVGTRSNDPVAYALAEMLKENKVLKTLNVESNFISGAGILRLVEALPYNTSLVEMKIDNQSQPLGNKVEMEIVSMLEKNATLLKFGYHFTQQGPRLRASNAMMNNNDLVRKRRLADLTGPIIPKCRSGV [TMOD1]",
    "solubility in G1/S (log2)": 0.122
  },
  {
    "polymer sequence": "MEIPPTNYPASRAALVAQNYINYQQGTPHRVFEVQKVKQASMEDIPGRGHKYHLKFAVEEIIQKQVKVNCTAEVLYPSTGQETAPEVNFTFEGETGKNPDEEDNTFYQRLKSMKEPLEAQNIPDNFGNVSPEMTLVLHLAWVACGYIIWQNSTEDTWYKMVKIQTVKQVQRNDDFIELDYTILLHNIASQEIIPWQMQVLWHPQYGTKVKHNSRLPKEVQLE [LXN]",
    "solubility in G1/S (log2)": 0.224
  }
]

---

System: HeLa Kyoto
test details: solubility in G1/S (NP-40 vs SDS abundance) (log2 ratio); higher = more soluble
measurement context: cell cycle stage: G1/S
Form field: solubility in G1/S (log2) (one value per entry).

[
  {
    "polymer sequence": "MSQAEFEKAAEEVRHLKTKPSDEEMLFIYGHYKQATVGDINTERPGMLDFTGKAKWDAWNELKGTSKEDAMKAYINKVEELKKKYGI [DBI]",
    "solubility in G1/S (log2)": -0.236
  },
  {
    "polymer sequence": "MAQGWAGFSEEELRRLKQTKDPFEPQRRLPAKKSRQQLQREKALVEQSQKLGLQDGSTSLLPEQLLSAPKQRVNVQKPPFSSPTLPSHFTLTSPVGDGQPQGIESQPKELGLENSHDGHNNVEILPPKPDCKLEKKKVELQEKSRWEVLQQEQRLMEEKNKRKKALLAKAIAERSKRTQAETMKLKRIQKELQALDDMVSADIGILRNRIDQASLDYSYARKRFDRAEAEYIAAKLDIQRKTEIKEQLTEHLCTIIQQNELRKAKKLEELMQQLDVEADEETLELEVEVERLLHEQEVESRRPVVRLERPFQPAEESVTLEFAKENRKCQEQAVSPKVDDQCGNSSSIPFLSPNCPNQEGNDISAALAT [GORAB]",
    "solubility in G1/S (log2)": 0.431
  },
  {
    "polymer sequence": "MATLWGGLLRLGSLLSLSCLALSVLLLAQLSDAAKNFEDVRCKCICPPYKENSGHIYNKNISQKDCDCLHVVEPMPVRGPDVEAYCLRCECKYEERSSVTIKVTIIIYLSILGLLLLYMVYLTLVEPILKRRLFGHAQLIQSDDDIGDHQPFANAHDVLARSRSRANVLNKVEYAQQRWKLQVQEQRKSVFDRHVVLS [TMEM9B]",
    "solubility in G1/S (log2)": -0.235
  }
]
